measurement.target: T1, αvβ6 integrin (human, UniProt P06756 31-1048; P18564 22-788)
T1 construct: whole, on cells; target is the endogenous integrin on αvβ6 positive-control cell lines; also called Integrin alpha-v beta-6
T1 sequence (P06756 31-1048, chain 1 of 2): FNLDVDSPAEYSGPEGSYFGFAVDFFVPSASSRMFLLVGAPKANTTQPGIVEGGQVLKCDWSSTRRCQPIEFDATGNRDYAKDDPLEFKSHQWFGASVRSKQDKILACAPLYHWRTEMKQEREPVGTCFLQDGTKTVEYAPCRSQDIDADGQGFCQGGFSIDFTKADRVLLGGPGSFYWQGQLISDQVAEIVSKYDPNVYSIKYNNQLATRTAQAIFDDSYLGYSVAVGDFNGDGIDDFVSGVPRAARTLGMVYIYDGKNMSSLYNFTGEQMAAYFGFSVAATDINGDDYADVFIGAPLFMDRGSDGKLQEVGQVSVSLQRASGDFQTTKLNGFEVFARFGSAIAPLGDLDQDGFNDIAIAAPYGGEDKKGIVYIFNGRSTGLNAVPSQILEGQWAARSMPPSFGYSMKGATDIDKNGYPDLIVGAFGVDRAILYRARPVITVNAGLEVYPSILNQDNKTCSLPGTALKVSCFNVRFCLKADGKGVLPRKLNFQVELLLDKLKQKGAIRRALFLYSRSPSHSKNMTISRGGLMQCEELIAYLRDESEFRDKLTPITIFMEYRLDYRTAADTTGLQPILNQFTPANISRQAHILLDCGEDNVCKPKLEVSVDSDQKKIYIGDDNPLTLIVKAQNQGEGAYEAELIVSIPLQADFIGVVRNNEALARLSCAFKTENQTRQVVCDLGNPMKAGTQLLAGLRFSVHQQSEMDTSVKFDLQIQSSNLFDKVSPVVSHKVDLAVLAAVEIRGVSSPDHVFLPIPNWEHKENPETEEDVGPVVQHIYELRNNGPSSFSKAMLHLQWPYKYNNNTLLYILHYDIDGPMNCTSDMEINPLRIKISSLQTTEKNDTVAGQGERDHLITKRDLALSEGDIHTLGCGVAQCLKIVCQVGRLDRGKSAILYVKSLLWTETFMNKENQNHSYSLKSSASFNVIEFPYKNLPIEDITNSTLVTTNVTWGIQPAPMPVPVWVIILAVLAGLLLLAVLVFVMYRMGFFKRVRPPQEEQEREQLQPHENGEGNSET
T1 sequence (P18564 22-788, chain 2 of 2): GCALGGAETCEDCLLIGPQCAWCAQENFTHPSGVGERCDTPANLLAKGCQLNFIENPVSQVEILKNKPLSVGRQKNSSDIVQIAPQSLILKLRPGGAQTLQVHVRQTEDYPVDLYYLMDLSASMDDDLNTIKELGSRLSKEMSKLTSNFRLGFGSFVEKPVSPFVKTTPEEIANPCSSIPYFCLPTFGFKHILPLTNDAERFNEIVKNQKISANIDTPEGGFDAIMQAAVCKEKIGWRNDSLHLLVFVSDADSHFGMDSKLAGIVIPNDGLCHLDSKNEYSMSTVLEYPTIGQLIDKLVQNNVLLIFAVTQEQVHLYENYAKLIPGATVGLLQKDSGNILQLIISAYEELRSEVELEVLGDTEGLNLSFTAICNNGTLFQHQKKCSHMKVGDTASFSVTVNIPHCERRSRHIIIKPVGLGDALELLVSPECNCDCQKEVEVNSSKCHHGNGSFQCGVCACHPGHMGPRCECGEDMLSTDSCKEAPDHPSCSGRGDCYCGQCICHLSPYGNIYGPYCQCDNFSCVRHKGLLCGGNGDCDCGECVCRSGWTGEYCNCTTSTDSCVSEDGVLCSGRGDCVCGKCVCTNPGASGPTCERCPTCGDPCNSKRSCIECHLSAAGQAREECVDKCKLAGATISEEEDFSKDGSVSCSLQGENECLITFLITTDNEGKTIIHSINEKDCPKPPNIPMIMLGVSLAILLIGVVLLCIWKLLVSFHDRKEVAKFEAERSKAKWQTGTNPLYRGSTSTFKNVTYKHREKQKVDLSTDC
test.summary: flow cytometry, Cy5-polymer conjugate 5 µg/ml, H2009 cells
Non-standard residues stand in square brackets, D forms with d. No end group written: not given here. *: point of attachment. guanidinyl = N-terminal guanidinyl cap, N=C(N)*; Agp = N=C(N)NC[C@H](N)C(=O)O
metric.name: MFI (specific MFI ratio, sample/no-ligand) (ratio)
Unit ratio implied. Number only.

**Query** MFI (specific MFI ratio, sample/no-ligand) lookup needed for RGDLAT (not fully specified, Tested as ligand-(PEG)8-K-HyNic conjugated to Cy5-labelled 1170-100B polymer) , thanks.
**Result** 1.3

**Query** MFI (specific MFI ratio, sample/no-ligand) lookup needed for Ac-RGDLATLRQL (not fully specified; printed as Ac-RGDLATLRQL, Tested as ligand-(PEG)8-K-HyNic conjugated to Cy5-labelled 1170-100B polymer) [Ac-RGDLATLRQL] , thanks.
**Result** 4.7

**Query** MFI (specific MFI ratio, sample/no-ligand) lookup needed for Ac-RGDLALLRQL (not fully specified; printed as Ac-RGDLALLRQL, Tested as ligand-(PEG)8-K-HyNic conjugated to Cy5-labelled 1170-100B polymer) [Ac-RGDLALLRQL] , thanks.
**Result** 6.06

**Query** MFI (specific MFI ratio, sample/no-ligand) lookup needed for guanidinyl-RGDLATLRQL (not fully specified; printed as Guanidinyl-RGDLATLRQL, Tested as ligand-(PEG)8-K-HyNic conjugated to Cy5-labelled 1170-100B polymer) [Guanidinyl-RGDLATLRQL] , thanks.
**Result** 4.3

**Query** MFI (specific MFI ratio, sample/no-ligand) lookup needed for [Agp]GDLATLRQL (not fully specified; printed as Dap(guanidino)-GDLATLRQL, Tested as ligand-(PEG)8-K-HyNic conjugated to Cy5-labelled 1170-100B polymer) [Dap(guanidino)-GDLATLRQL] , thanks.
**Result** 3.4

**Query** MFI (specific MFI ratio, sample/no-ligand) lookup needed for Ac-RGDLAVLRQL (not fully specified; printed as Ac-RGDLAVLRQL, Tested as ligand-(PEG)8-K-HyNic conjugated to Cy5-labelled 1170-100B polymer) [Ac-RGDLAVLRQL] , thanks.
**Result** 6.23

**Query** MFI (specific MFI ratio, sample/no-ligand) lookup needed for RGDLATLRQ (not fully specified, Tested as ligand-(PEG)8-K-HyNic conjugated to Cy5-labelled 1170-100B polymer) , thanks.
**Result** 4.7

**Query** MFI (specific MFI ratio, sample/no-ligand) lookup needed for Ac-RGDLAILRQL (not fully specified; printed as Ac-RGDLAILRQL, Tested as ligand-(PEG)8-K-HyNic conjugated to Cy5-labelled 1170-100B polymer) [Ac-RGDLAILRQL] , thanks.
**Result** 6.22
